- Assay System: Human recombinant MMP-14 (Homo sapiens)
- Construct: The catalytic domain enzyme was expressed in E. coli inclusion bodies, solubilized in urea; made in house
- Protocol Description: In vitro MMP inhibition, Ki determination (fluorogenic substrate II)
- Format: biochemical
- Settings: value in parenthesis
pKi: −log10 of the molar value.
Parameter Measured: pKi

Please give pKi for each item listed below.
1. O=C(NO)C1(S(=O)(=O)c2ccc(OCCCc3cccc(-c4ccncc4)c3)cc2)CCOCC1
2. O=C(NO)C1(S(=O)(=O)c2ccc(OCCc3cccc(-c4ccc(Cl)c(Cl)c4)c3)cc2)CCOCC1
3. Cc1cc(-c2cccc(CCCOc3ccc(S(=O)(=O)C4(C(=O)NO)CCOCC4)cc3)c2)ccc1F
4. COCCN1CCC(C(=O)NO)(S(=O)(=O)c2ccc(OCCCc3nc(-c4ccccc4OC(F)(F)F)no3)cc2)CC1
5. O=C(NO)C1(S(=O)(=O)c2ccc(OCCc3cccc(-c4cccnc4)c3)cc2)CCOCC1
6. COCCN1CCC(C(=O)NO)(S(=O)(=O)c2ccc(OCCCc3nc(-c4ccc(OC(F)(F)F)cc4)no3)cc2)CC1
7. O=C(NO)C1(S(=O)(=O)c2ccc(OCCCc3nc(C4CCCCC4)no3)cc2)CCN(C2CC2)CC1
8. O=C(NO)C1(S(=O)(=O)c2ccc(OCCc3cccc(-c4ccc(OC(F)(F)F)cc4)c3)cc2)CCOCC1

Response:
1: 5.60; 2: < 5.00; 3: < 5.00; 4: < 5.00; 5: 5.78; 6: < 5.00; 7: < 5.00; 8: < 5.00
